assayedTarget: T1, self peptide on HLA-A*02:01 (human)
T1 peptide: ILAKFLHWL
testSummary: data from [117]; method not given; soluble, other
readoutKind: pKd
Scale: negative log10 of molar concentration, which is what pKd denotes.

Quick one: give measured pKd for ILA1 (TCR) alpha TRAV22*01 CDR3: AVDSATSGTYKYI beta TRBV6-5*01 CDR3: ASSYQGTEAF
4.32
